Origin of measurements: ChEMBL document CHEMBL1961873

# study system: Ephrin type-B receptor 2 (Homo sapiens) (UniProt P29323);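 further: reported as mean inhibition of EPHB2, from the GSK PKIS dataset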
# Sequence (P29323 whole entry): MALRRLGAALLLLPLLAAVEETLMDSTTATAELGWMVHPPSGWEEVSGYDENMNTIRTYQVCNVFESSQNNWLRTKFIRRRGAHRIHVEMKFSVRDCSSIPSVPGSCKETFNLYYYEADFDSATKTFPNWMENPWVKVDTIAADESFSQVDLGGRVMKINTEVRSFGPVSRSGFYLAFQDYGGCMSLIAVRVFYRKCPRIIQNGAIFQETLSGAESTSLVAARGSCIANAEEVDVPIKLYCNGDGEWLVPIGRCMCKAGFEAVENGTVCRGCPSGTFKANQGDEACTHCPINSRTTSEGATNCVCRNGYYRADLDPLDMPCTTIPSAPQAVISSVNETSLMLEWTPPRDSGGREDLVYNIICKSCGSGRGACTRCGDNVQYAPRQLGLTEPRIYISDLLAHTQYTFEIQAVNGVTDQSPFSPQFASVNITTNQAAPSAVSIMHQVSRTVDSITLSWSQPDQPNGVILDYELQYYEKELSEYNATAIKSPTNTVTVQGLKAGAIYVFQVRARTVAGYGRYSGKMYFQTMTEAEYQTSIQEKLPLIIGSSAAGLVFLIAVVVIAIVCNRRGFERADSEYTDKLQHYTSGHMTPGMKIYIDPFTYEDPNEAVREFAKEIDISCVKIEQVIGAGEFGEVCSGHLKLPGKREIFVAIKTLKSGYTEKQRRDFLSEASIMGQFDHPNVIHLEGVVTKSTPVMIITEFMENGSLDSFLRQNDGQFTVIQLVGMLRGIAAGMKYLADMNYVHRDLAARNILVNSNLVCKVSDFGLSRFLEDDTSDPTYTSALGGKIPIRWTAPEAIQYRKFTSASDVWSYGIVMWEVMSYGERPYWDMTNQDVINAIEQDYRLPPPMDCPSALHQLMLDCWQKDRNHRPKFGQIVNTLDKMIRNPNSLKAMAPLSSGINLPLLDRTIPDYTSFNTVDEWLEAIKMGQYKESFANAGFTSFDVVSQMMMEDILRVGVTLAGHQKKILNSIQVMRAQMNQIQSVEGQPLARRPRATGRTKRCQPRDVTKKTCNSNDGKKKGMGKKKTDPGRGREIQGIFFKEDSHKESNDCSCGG
# measurement context: at 0.1 µM
Entries and their inhibition values follow.
Units required after the number.

C/C(Nc1ccc(S(N)(=O)=O)cc1)=C1/C(=O)Nc2ccccc21 :: -3.98%
COc1ccc2cc(-c3c(-c4ccncc4)nc(-c4ccc(S(C)(=O)=O)cc4C)n3C)ccc2c1 :: 4.7%
COc1cc(C)c(N(C)C(=O)CN(C)C)cc1Nc1nc(Nc2cccc(F)c2C(N)=O)c2cc[nH]c2n1 :: 2.81%
COc1cc(Nc2ncc3c(C)nc(-c4cccc(C(F)(F)F)c4)n3n2)cc(OC)c1OC :: 17.1%
C[C@@H](Oc1cc(-n2cnc3ccc(OC4CCN(C)CC4)cc32)sc1C(N)=O)c1ccccc1Cl :: 7.8%

Param readout = inhibition; param system = Ephrin type-B receptor 2 (Homo sapiens) (UniProt P29323); param query = Nc1nccc(-c2c(-c3ccc(F)cc3)ncn2C2CCC(O)CC2)n1 (stereo not given) ; response: value 7.37%

Param readout = inhibition; param system = Ephrin type-B receptor 2 (Homo sapiens) (UniProt P29323); param query = N#Cc1ccc(Oc2nccc(-c3c(-c4ccc(F)cc4)ncn3C3CCNCC3)n2)cc1 ; response: value 11%

Param readout = inhibition; param system = Ephrin type-B receptor 2 (Homo sapiens) (UniProt P29323); param query = Fc1ccc(-c2ncn(C3CCNCC3)c2-c2ccnc(Oc3ccc4c(c3)OCO4)n2)cc1 ; response: value 10.6%

Param readout = inhibition; param system = Ephrin type-B receptor 2 (Homo sapiens) (UniProt P29323); param query = COC(=O)Nc1nc2ccc(Sc3ccc(NC(=O)Nc4cc(C(F)(F)F)ccc4F)cc3)cc2[nH]1 ; response: value 43.4%

Param readout = inhibition; param system = Ephrin type-B receptor 2 (Homo sapiens) (UniProt P29323); param query = O=C(Nc1n[nH]c2nc(-c3ccc(O)cc3)c(Br)cc12)C1CC1 ; response: value 11.9%
